Sourced from patent US20240400638A1

# System: T1, human RXFP1 (human, UniProt Q9HBX9 1-757)
# T1 sequence (looked up): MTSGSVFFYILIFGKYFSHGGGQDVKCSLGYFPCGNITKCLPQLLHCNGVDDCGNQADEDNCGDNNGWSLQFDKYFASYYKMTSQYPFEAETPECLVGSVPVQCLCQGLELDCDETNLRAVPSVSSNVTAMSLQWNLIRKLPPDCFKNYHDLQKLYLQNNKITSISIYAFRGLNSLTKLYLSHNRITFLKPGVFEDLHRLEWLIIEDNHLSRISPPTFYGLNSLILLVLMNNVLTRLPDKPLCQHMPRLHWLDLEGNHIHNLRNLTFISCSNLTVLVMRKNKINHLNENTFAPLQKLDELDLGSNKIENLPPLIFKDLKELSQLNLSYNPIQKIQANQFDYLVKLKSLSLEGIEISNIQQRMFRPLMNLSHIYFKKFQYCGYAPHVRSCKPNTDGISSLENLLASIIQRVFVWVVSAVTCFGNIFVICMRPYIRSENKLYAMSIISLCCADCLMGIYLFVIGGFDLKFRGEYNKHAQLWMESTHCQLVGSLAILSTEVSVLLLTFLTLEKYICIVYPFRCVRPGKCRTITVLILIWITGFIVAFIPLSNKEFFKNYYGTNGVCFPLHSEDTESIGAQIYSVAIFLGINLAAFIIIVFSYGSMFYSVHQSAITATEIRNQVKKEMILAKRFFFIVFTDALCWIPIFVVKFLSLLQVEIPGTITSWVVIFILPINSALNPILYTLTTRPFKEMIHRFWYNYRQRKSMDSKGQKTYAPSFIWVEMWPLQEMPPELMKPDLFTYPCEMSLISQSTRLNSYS
# Assay notes: cell-based or functional assay
Numbered stars: 1 amine (or outer) side, 2 acyl side, 3 side chain; on linkers, the order of the positions; unused ones are H or OH. Square brackets hold non-standard residues; d marks the D form. Side chains are listed from the residue outwards. * marks the point of attachment. TTDS = 4-[3-[2-[2-(3-aminopropoxy)ethoxy]ethoxy]propylamino]-4-oxo-butanoyl; γGlu = O=C(O)[C@H](CCC(=O)[*:2])N[*:1]; Palmitoyl = CCCCCCCCCCCCCCCC(=O)*; αMeK = C[C@](N)(CCCCN)C(=O)O; Aib = CC(C)(N)C(=O)O
EC50 (nM), OVCAR 5 cells (cAMP) values for the binders below.
Numeric answer only, unit nM assumed.

Challenge: Which EC50 (nM), OVCAR 5 cells (cAMP) is reported for this binder? Ac-LEGREKVR[Aib]K(Ac)I[Aib][Aib]EGK([TTDS-TTDS-TTDS-γGlu-γGlu-γGlu-Palmitoyl])STWS[Aib]RAK(Ac)-NH2 [Relaxin peptide analogue of SEQ ID NO: 82]
Response given: 0.54

Challenge: Which EC50 (nM), OVCAR 5 cells (cAMP) is reported for this binder? Ac-LEGREKVRAKI[Aib][Aib]EGK([TTDS-TTDS-TTDS-γGlu-γGlu-γGlu-Palmitoyl])STFS[αMeK]RAK(Ac)-NH2 [Relaxin peptide analogue of SEQ ID NO: 47]
Response given: 0.64
